meta.source: paper PMC2975065

Biological target: DiscI (Discoidin I, isoform A) (Dictyostelium discoideum, UniProt P02886, S2A)
Sequence (P02886 whole entry S2A, canonical isoform): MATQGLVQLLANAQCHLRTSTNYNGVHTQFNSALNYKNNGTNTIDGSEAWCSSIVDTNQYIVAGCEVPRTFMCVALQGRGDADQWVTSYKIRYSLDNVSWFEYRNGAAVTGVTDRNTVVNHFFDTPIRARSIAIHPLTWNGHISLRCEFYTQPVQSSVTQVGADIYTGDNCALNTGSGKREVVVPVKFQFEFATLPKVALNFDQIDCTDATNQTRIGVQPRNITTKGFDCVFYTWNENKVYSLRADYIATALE
Assay: Isothermal titration microcalorimetry
Type: binding
Conditions: ITC, 25 °C
Threshold 4 kcal/mol: -ΔG strictly smaller gives y, otherwise n.

- compound: "CC(=O)N[C@H]1C(O)O[C@H](CO)[C@@H](O[C@@H]2O[C@H](CO)[C@H](O)[C@H](O)[C@H]2O)[C@@H]1O (stereo partly shown)"
  cat: "y"
- compound: "O=C[C@H](O)[C@@H](O)[C@@H](O)[C@H](O)CO"
  cat: "y"
- compound: "CC(=O)N[C@H]1[C@H](O[C@H]2[C@@H](O)[C@@H](CO)OC(O)[C@@H]2O)O[C@H](CO)[C@H](O)[C@@H]1O (stereo partly shown)"
  cat: "n"
- compound: "CC(=O)N[C@H]1C(O)O[C@H](CO)[C@H](O)[C@@H]1O (mixture of isomers)"
  cat: "n"
- compound: "CC(=O)N[C@H]1C(O)O[C@H](CO)[C@H](O)[C@@H]1O[C@@H]1O[C@H](CO)[C@H](O)[C@H](O)[C@H]1O (stereo partly shown)"
  cat: "n"
- compound: "CO[C@H]1O[C@H](CO)[C@H](O)[C@H](O)[C@H]1O [αMeGalactoside]"
  cat: "y"
- compound: "COC1OC(CO)C(O)C(O)C1O (stereo not drawn) [βMeGalactoside, β–Methyl-galactoside]"
  cat: "y"
